# Test System: the molecule itself
# Run Description: conversion rate assay (3 kDa centrifugal filtration, fluorescamine fluorescence); self-assembly; 1 mM peptide incubated 24 h, monomers separated from fibers at 12 000 g for 60 min at 4 °C; filtrated against nonfiltrated fluorescence
conversion rate overview
Property Name: conversion rate (%)

>>> observed("KIKIQIN (designed variant of enhancing factor-C (EF-C), pattern KXKXQXN with X = I; self-assembling peptide; made on Fmoc-Asn(Trt) Wang resin; also called KIKIQIN; source: synthetic peptide (Fmoc-SPPS, preparative RP-HPLC, purity ≥ 90 %)) [EF‐CI]")
93
>>> observed("KFKFQFN (designed variant of enhancing factor-C (EF-C), pattern KXKXQXN with X = F; self-assembling peptide; made on Fmoc-Asn(Trt) Wang resin; also called KFKFQFN; source: synthetic peptide (Fmoc-SPPS, preparative RP-HPLC, purity ≥ 90 %)) [EF‐CF]")
94
>>> observed("KWKWQWN (designed variant of enhancing factor-C (EF-C), pattern KXKXQXN with X = W; self-assembling peptide; made on Fmoc-Asn(Trt) Wang resin; also called KWKWQWN; source: synthetic peptide (Fmoc-SPPS, preparative RP-HPLC, purity ≥ 90 %)) [EF‐CW]")
94
>>> observed("KLKLQLN (designed variant of enhancing factor-C (EF-C), pattern KXKXQXN with X = L; self-assembling peptide; made on Fmoc-Asn(Trt) Wang resin; also called KLKLQLN; source: synthetic peptide (Fmoc-SPPS, preparative RP-HPLC, purity ≥ 90 %)) [EF‐CL]")
73
>>> observed("KVKVQVN (designed variant of enhancing factor-C (EF-C), pattern KXKXQXN with X = V; self-assembling peptide; made on Fmoc-Asn(Trt) Wang resin; also called KVKVQVN; source: synthetic peptide (Fmoc-SPPS, preparative RP-HPLC, purity ≥ 90 %)) [EF‐CV]")
62
